# key: entry, value: melting point

Observe how each entry below is paired with its result.
Sample smiles | melting point
O=c1cc(Cl)sn1Cc1sc2ccccc2c1Cl | 118 to 120 °C
O=c1ccsn1Cc1cccc(-c2ccco2)c1 | 78 to 80 °C

Query: Item under review: "O=c1ccsn1Cc1cccc2ccccc12" . Reported melting point?
Result: 121 to 125 °C

Query: Item under review: "Cc1nc(-c2ccc(Cn3sccc3=O)cc2)cs1" . Reported melting point?
Result: 150.5 to 152 °C

Query: Item under review: "O=c1cc(Cl)sn1Cc1ccc(-c2csnn2)cc1" . Reported melting point?
Result: 152 to 154 °C

###

# key: entry, value: melting point

Observe how each entry below is paired with its result.
Sample smiles | melting point
O=c1cc(Cl)sn1Cc1ccc2c(c1)CCO2 | 100 to 102 °C
O=c1cc(Cl)sn1Cc1cc2ccccc2s1 | 101 to 103 °C

Query: Item under review: "O=c1ccsn1Cc1cc2ccccc2s1" . Reported melting point?
Result: 144 to 146 °C
